tested on: OCI-AML2; assay: cell viability relative to vehicle control; higher = less cytotoxic; conditions: 10 µM; SRSF2 genotype: P95H/wt;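 further: after 48 h exposure read by CellTiter-Glo luminescence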
Where a name gives a salt, the structure may show the parent alone.
Output TRUE for records whose cell viability is lower than 50%, FALSE for records at or above 50%.

>  <Compound>
C=CC(=O)Nc1cccc(Sc2nc(Nc3ccc(N4CCN(C)CC4)cc3)ncc2Cl)c1

>  <Category Label>
TRUE

$$$$
>  <Compound>
N=C(N)NC(=N)NCCc1ccccc1 [Phenformin hydrochloride]

>  <Category Label>
FALSE

$$$$
>  <Compound>
CCn1c2ccccc2c2cc(CNCc3ccccc3OC)ccc21 [HLCL-61 hydrochloride]

>  <Category Label>
FALSE

$$$$
>  <Compound>
CCS(=O)(=O)Nc1ccc2[nH]c(O)c(C(=Nc3ccc(CN4CCCCC4)cc3)c3ccccc3)c2c1 [Hesperadin]

>  <Category Label>
TRUE

$$$$
>  <Compound>
O=C(Nc1cccc(Cl)c1)Nc1ncc(CCNc2ncnc3ccsc23)s1 [SNS-314 Mesylate]

>  <Category Label>
TRUE

$$$$
>  <Compound>
N=C(N)N [Guanidine (Aminoformamidine) HCl]

>  <Category Label>
FALSE

$$$$
>  <Compound>
O=c1cc(-c2ccc(O)cc2)oc2cc(O)cc(O)c12 [Apigenin]

>  <Category Label>
FALSE

$$$$
>  <Compound>
C[C@H](NC(=O)C(=O)Nc1ccccc1C(C)(C)C)C(=O)N[C@@H](CC(=O)O)C(=O)COc1c(F)c(F)cc(F)c1F

>  <Category Label>
FALSE

$$$$
>  <Compound>
CCn1cc(C(=O)O)c(=O)c2cc(F)c(N3CCN(C)CC3)cc21 [Pefloxacin mesylate]

>  <Category Label>
FALSE

$$$$
>  <Compound>
COc1cc(OC)cc(N(CCNC(C)C)c2ccc3ncc(-c4cnn(C)c4)nc3c2)c1

>  <Category Label>
TRUE

$$$$
>  <Compound>
O=C(O)c1cc(O)ccc1O [Gentisic acid]

>  <Category Label>
FALSE

$$$$
>  <Compound>
COc1ccnc(C[S+]([O-])c2nc3cc(OC(F)F)ccc3[nH]2)c1OC (stereo not drawn) [Pantoprazole sodium]

>  <Category Label>
FALSE

$$$$
>  <Compound>
Clc1ccc(C(Cn2ccnc2)OCc2c(Cl)cccc2Cl)c(Cl)c1 (stereo not drawn) [Isoconazole nitrate (Travogen)]

>  <Category Label>
FALSE

$$$$
>  <Compound>
CC(C)Cn1cnc2c(N)nc3ccccc3c21 [Imiquimod]

>  <Category Label>
FALSE

$$$$
>  <Compound>
CC(C)C[C@@H](C=O)NC(=O)[C@H](CC(C)C)NC(=O)[C@H](CC(C)C)NC(=O)OCc1ccccc1

>  <Category Label>
TRUE

$$$$
>  <Compound>
NC(=O)c1cc(F)cc2c1C(=O)N(C1CCN(C3CCC(F)(F)CC3)CC1)C2

>  <Category Label>
FALSE

$$$$
